In this section, each of the compounds is paired with its reported MIC.
# System: Streptococcus pneumoniae
# assay name: Antibacterial activity against erythromycin-susceptible Streptococcus pneumoniae by agar microdilution method
# Format: functional
quantity name: MIC

compound	result
CC[C@H]1OC(=O)[C@H](C)C(=O)[C@H](C)[C@@H](O[C@@H]2O[C@H](C)C[C@H](N(C)C)[C@H]2O)[C@](C)(OCC=Cc2cnc3ccccc3c2)C[C@@H](C)C(=O)[C@H](C)[C@H]2NC(=O)O[C@@]21C	≤ 0.06 µg/mL
CC[C@H]1OC(=O)[C@H](C)C(=O)[C@H](C)[C@@H](O[C@@H]2O[C@H](C)C[C@H](N(C)C)[C@H]2O)[C@](C)(OC)C[C@@H](C)C(=O)[C@H](C)[C@H]2C(NC(=O)CCc3ccc4ccccc4c3)C(=O)O[C@@]21C (some centres undefined)	≤ 0.125 µg/mL
CC[C@H]1OC(=O)[C@H](C)C(=O)[C@H](C)[C@@H](O[C@@H]2O[C@H](C)C[C@H](N(C)C)[C@H]2O)[C@](C)(OC)C[C@@H](C)C(=O)[C@H](C)[C@H]2C(NC(=O)CCc3ccncc3)C(=O)O[C@@]21C (some centres undefined)	≤ 0.125 µg/mL
CC[C@H]1OC(=O)[C@H](C)C(=O)[C@H](C)[C@@H](O[C@@H]2O[C@H](C)C[C@H](N(C)C)[C@H]2O)[C@](C)(OC)C[C@@H](C)C(=O)[C@H](C)[C@H]2C(NC(=O)CCc3cnc4ccc(OC)cc4c3)C(=O)O[C@@]21C (some centres undefined)	≤ 0.125 µg/mL
